assay: Metabolic stability in rat liver microsomes assessed as half life incubated for 60 mins in presence of NADPH by LC-MS/MS analysis; format: ADME, Microsome
Property Label: half-life
# output: numeric value plus its unit

For record COc1cc(/C=C/C(=O)CC(=O)/C=C/c2ccc(/C=C/C(=O)NO)cc2)ccc1O the listed half-life is 40.7 min

* * *

test: Tmax in BALB/c mouse at 50 mg/kg, po; format: ADME, organism-based; details: in vivo
Property Label: Tmax
The reply should read as a number followed by its unit.

Looking up CC(C)n1cnc2c(-c3cccc(OCCCC(=O)NO)c3)nc(N3CCOCC3)nc21 , I found its Tmax recorded as 9 min
